Target: P. falciparum apicoplast DNA polymerase (Pf-apPOL) (Plasmodium falciparum)
Test: Fluorescence-based high-throughput DNA polymerase assay (molecular beacon), primary screen and dose-response
Type: biochemical
Settings: DRC-2; 180'; concentration 5
observed_property: % inhibition apPOL 180' (%)
The figure you give is taken to be in %; do not add the unit.

Quick one: % inhibition apPOL 180' of O=C(NC(C(Cl)Cl)S(=O)(=O)c1ccccc1)c1ccccc1 (centres unmarked) ?
11

Quick one: % inhibition apPOL 180' of COc1ccc(CNC(=O)Cn2nc3c(c2NC(=O)Cc2cccs2)CSC3)cc1 ?
-14

Quick one: % inhibition apPOL 180' of N#CC(=NNc1cc(C(F)(F)F)cc(C(F)(F)F)c1)C(=O)c1ccco1 ?
4.73

Quick one: % inhibition apPOL 180' of O=C(Nc1cccc(Cl)c1)Nc1nnc(-c2ccncc2)s1 ?
30

Quick one: % inhibition apPOL 180' of O=C(O)c1ccc(-c2nc3cc(-c4ccc5nc(-c6ccc(C(=O)O)cc6)[nH]c5c4)ccc3[nH]2)cc1 ?
-1.88

###

Molecular target: UniProt:Q8ILY1
Test: Fluorescence-based high-throughput DNA polymerase assay (molecular beacon), primary screen and dose-response
Type: biochemical
Conditions: DRC-1; 10'; concentration 5
Description: The HT assay employs a molecular beacon, a stem-loop DNA template with a Cy3 dye and the Black Hole Quencher on the 3′ and 5′ ends of the DNA, respectively. Pf-apPOL concentration is based on a calculated absorptivity of ε280 = 56750 M^−1 cm^−1. […] To identify apPOL inhibitors we utilised our previously developed high-throughput DNA polymerase assay. […] The assay accurately recapitulates the kinetic behaviour of apPOL, as measured through more conventional low-throughput gel-based assays. […]
Listed below: % inhibition Apo pol 10' values for each entry.
The figure you give is taken to be in %; do not add the unit.

Field: example entries. Status: answers known.
                                   molecule  value_observed
0  CCC(C)NC(=O)c1cc(NC(C)=O)cc2nc(C)ccc12 (stereo not shown) [KU0206314]         11.6857
1  OC(C#Cc1ccccc1)c1ccco1 (stereo not shown) [Molecule 95, OC(c1ccco1)C#Cc1ccccc1]         57.2957
2  Oc1ccc(N=Nc2ccccc2)c(O)c1 [Molecule 80, Oc1ccc(c(c1)O)N=Nc1ccccc1]         10.5427

Quick one: % inhibition Apo pol 10' of O=C1CCCC2=C1C(c1ccccn1)C1=C(CCCC1=O)O2 [KU0194228] ?
9.9789

###

Listed below: % inhibition Apo pol 10' values for each entry.
Target: P. falciparum apicoplast DNA polymerase (Pf-apPOL) (Plasmodium falciparum, UniProt Q8ILY1)
Sequence (Q8ILY1 entry or part of it): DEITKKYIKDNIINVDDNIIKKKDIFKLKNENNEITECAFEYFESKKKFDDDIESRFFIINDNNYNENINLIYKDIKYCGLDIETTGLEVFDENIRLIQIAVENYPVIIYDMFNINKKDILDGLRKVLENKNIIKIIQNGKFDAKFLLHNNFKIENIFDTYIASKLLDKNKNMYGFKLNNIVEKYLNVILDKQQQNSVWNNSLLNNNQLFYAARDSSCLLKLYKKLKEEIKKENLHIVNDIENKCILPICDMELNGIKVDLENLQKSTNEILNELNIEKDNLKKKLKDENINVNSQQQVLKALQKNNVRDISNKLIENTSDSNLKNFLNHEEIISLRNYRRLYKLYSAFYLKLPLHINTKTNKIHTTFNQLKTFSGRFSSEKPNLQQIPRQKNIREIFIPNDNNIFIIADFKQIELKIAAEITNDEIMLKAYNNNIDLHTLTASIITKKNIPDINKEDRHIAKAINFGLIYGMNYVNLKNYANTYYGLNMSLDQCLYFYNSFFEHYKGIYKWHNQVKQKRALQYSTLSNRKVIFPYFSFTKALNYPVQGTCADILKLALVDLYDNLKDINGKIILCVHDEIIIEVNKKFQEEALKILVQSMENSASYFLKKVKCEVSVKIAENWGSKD
Assay: Fluorescence-based high-throughput DNA polymerase assay (molecular beacon), primary screen and dose-response
Format: biochemical
Conditions: DRC-1; 10'; concentration 20
The figure you give is taken to be in %; do not add the unit.

>>> print(df.to_string())
                                   compound  value_observed
0  Cc1ccc(CCNC(=O)c2cnn3c(O)c(Cc4ccccc4F)c(C)nc23)cc1         32.4745
1  N#Cc1c(C2CCCCC2)nc(Sc2ccc(C(F)(F)F)cc2[N+](=O)[O-])[nH]c1=O         88.1341
2  Cc1ccc(C)n1-c1ccc(C(=O)NNC(=O)c2ccc3nccnc3c2)cc1         46.3145

Quick one: % inhibition Apo pol 10' of O=C(O)c1cccc(N2N=C(C(F)(F)F)/C(=C/c3ccc(-c4ccccc4[N+](=O)[O-])o3)C2=O)c1 ?
85.2952

Quick one: % inhibition Apo pol 10' of O=C(Cn1ccc2c(=O)[nH]ccc21)Nc1cccc(Cl)c1 [Molecule 23, O=C(Cn1ccc2c1cc[nH]c2=O)Nc1cccc(c1)Cl] ?
81.0439

###

Target: P. falciparum apicoplast DNA polymerase (Pf-apPOL) (Plasmodium falciparum, UniProt Q8ILY1)
Assay: Fluorescence-based high-throughput DNA polymerase assay (molecular beacon), primary screen and dose-response;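 as to % inhibition apPOL 180': test concentration in µM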
Format: biochemical
Details: DRC-1; 180'; concentration 5
observed_property: % inhibition apPOL 180' (%)
The figure you give is taken to be in %; do not add the unit.

Form: Entry = Cc1ccc(CCNC(=O)c2cnn3c(O)c(Cc4ccccc4F)c(C)nc23)cc1 [KU0097142] | System = P. falciparum apicoplast DNA polymerase (Pf-apPOL) (Plasmodium falciparum, UniProt Q8ILY1) | % inhibition apPOL 180' = ____
-8.372

###

Biological target: P. falciparum apicoplast DNA polymerase (Pf-apPOL) (Plasmodium falciparum, UniProt Q8ILY1)
Assay: Fluorescence-based high-throughput DNA polymerase assay (molecular beacon), primary screen and dose-response;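 as to % inhibition apPOL 180': test concentration in µM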
Format: biochemical
Conditions: DRC-2; concentration 10; 180'
Listed below: % inhibition apPOL 180' values for each entry.
The figure you give is taken to be in %; do not add the unit.

Field: example entries. Status: answers known.
>>> df
                             item_smiles        observed_property  value_observed
0   O=C(Nc1c2c(nn1-c1ccccc1)CSC2)c1ccco1  % inhibition apPOL 180'              24
1  O=[N+]([O-])c1ccc(SCc2ccco2)c2cccnc12  % inhibition apPOL 180'              22
2         O=C(O)c1nc(-c2ccccc2)nc2c1OCO2  % inhibition apPOL 180'              17

Quick one: % inhibition apPOL 180' of O=C(O)c1cc([N+](=O)[O-])c(N2CCN(c3cccc(C(F)(F)F)c3)CC2)c([N+](=O)[O-])c1 ?
2.65

Quick one: % inhibition apPOL 180' of Cc1ccnc(NS(=O)(=O)c2ccc(-n3cccc3)cc2)n1 ?
21

###

Listed below: % inhibition Apo pol 5' 40 values for each entry.
Biological target: P. falciparum apicoplast DNA polymerase (Pf-apPOL) (Plasmodium falciparum, UniProt Q8ILY1)
Assay: Fluorescence-based high-throughput DNA polymerase assay (molecular beacon), primary screen and dose-response
Type: biochemical
Details: DRC-2; read at 5'; concentration 40
Please answer using the number first and the unit second.

Field: example entries. Status: answers known.
>>> print(df.to_string())
                                   compound           observed_property  value_observed
0  COc1ccc(C2CC(c3ccc(Cl)cc3Cl)Nc3nc(N)nn32)cc1OC (stereo not shown)  % inhibition Apo pol 5' 40             39%
1  CC(=O)Nc1cc(C(=O)c2cccs2)nn(-c2ccc(Cl)cc2)c1=O  % inhibition Apo pol 5' 40             40%
2  Cc1cccc(-c2noc(C(=O)NNC(=O)C(Cl)(Cl)Cl)n2)c1  % inhibition Apo pol 5' 40             36%
3  O=C(CCc1csc(NC(=O)Nc2ccccc2)n1)Nc1nc2ccccc2s1  % inhibition Apo pol 5' 40             34%
4  O=C1CSC2=NC3=C(CCc4ccccc43)C(c3cccs3)N12 (stereo not shown)  % inhibition Apo pol 5' 40             31%
5  O=C(c1ccccc1)N1CCc2c(nc3cc(-c4ccccc4)[nH]n3c2=O)C1  % inhibition Apo pol 5' 40             48%

Kindly review the next compound as well.
Quick one: % inhibition Apo pol 5' 40 of COc1ccc(/C=C/c2cc(C(=O)O)c3ccccc3n2)cc1 ?
43%

###

Listed below: % inhibition Apol 40' values for each entry.
Molecular target: P. falciparum apicoplast DNA polymerase (Pf-apPOL) (Plasmodium falciparum, UniProt Q8ILY1)
Assay: Fluorescence-based high-throughput DNA polymerase assay (molecular beacon), primary screen and dose-response;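 as to % inhibition Apol 40': compound concentration given in µM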
Format: biochemical
Conditions: DRC-2; 40'; concentration 20
Please answer using the number first and the unit second.

Field: example entries. Status: answers known.
>>> print(df.to_string())
                                   compound                              study_target      observed_property  value_observed
0  O=C(Cn1ccc2c(=O)[nH]ccc21)Nc1cccc(Cl)c1 [Molecule 23, O=C(Cn1ccc2c1cc[nH]c2=O)Nc1cccc(c1)Cl]  P. falciparum apicoplast DNA polymerase (Pf-apPOL) (Plasmodium falciparum, UniProt Q8ILY1)  % inhibition Apol 40'             65%
1  Cc1cccc(-c2nnc3ccc(NS(=O)(=O)c4ccc(C)c(C)c4)nn23)c1  P. falciparum apicoplast DNA polymerase (Pf-apPOL) (Plasmodium falciparum, UniProt Q8ILY1)  % inhibition Apol 40'             44%

Quick one: % inhibition Apol 40' of CC(NC(=O)Cc1cc(=O)[nH]c(SCc2cccc(Cl)c2)n1)c1ccccc1 (stereo not shown) ?
49%

Quick one: % inhibition Apol 40' of COc1ccc(NC(=O)Cn2ccc3c(=O)[nH]ccc32)cc1 [Molecule 13, COc1ccc(cc1)NC(=O)Cn1ccc2c1cc[nH]c2=O] ?
65%

Quick one: % inhibition Apol 40' of CCOc1cccc2cc(C(=O)Nc3nnc(-c4ccno4)o3)oc12 ?
57%
